- test_system: Human M4 (Homo sapiens, UniProt P08173)
- Construct: expressed in transfected cells
- Sequence (P08173 whole entry): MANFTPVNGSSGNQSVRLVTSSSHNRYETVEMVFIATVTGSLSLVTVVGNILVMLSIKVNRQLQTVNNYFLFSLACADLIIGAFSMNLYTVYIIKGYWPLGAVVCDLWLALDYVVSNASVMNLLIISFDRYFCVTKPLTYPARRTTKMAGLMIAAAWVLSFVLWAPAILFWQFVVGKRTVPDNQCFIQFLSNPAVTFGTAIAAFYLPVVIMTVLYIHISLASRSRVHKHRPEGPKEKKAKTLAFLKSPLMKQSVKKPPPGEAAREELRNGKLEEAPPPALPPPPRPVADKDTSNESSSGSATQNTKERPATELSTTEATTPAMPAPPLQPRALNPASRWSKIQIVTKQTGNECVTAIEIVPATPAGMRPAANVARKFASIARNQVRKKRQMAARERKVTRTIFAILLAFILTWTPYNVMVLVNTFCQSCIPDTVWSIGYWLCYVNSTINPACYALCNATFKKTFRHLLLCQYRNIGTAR
- protocol_description: mAChR M4 cell-based functional assay (calcium flux, potentiation of EC20 acetylcholine response), hM4-Gqi5 CHO-K1 cells
- measurement_conditions: hM4-Gqi5 CHO-K1 cells, calcium flux, PAM of EC20 acetylcholine; read-out: Human M4 EC50
measurement_name: EC50 (nM)

Sample records with EC50:
- compound: "Cc1c(N2CCc3ncc(Oc4ccc(F)cc4)cc3C2)nn2cnnc2c1C [Compound 4]"
  test_system: "Human M4 (Homo sapiens, UniProt P08173)"
  units_of_measure: "nM"
  readout_number: 322
- compound: "Cc1ccc(Nc2cnc3c(c2)CN(c2nn4cnnc4c(C)c2C)CC3)c(F)n1 [Compound 81]"
  test_system: "Human M4 (Homo sapiens, UniProt P08173)"
  units_of_measure: "nM"
  readout_number: 169
- compound: "Cc1c(N2CCc3ncc(Nc4ccc(F)cc4F)cc3C2)nn2cnnc2c1C [Compound 70]"
  test_system: "Human M4 (Homo sapiens, UniProt P08173)"
  units_of_measure: "nM"
  readout_number: 205
- compound: "Cc1cc2nncn2nc1N1CCc2ncc(-c3cnn(C4CC4)c3)cc2C1 [Compound 143]"
  test_system: "Human M4 (Homo sapiens, UniProt P08173)"
  units_of_measure: "nM"
  readout_number: 138
- compound: "Cc1cc2nccn2nc1N1CCc2ncc(-c3c(C)cnn3C)cc2C1 [Compound 136]"
  test_system: "Human M4 (Homo sapiens, UniProt P08173)"
  units_of_measure: "nM"
  readout_number: 1200
- compound: "Cc1c(N2CCc3ncc(-c4ccc(C5CC5)nc4)cc3C2)nn2cnnc2c1C [Compound 38]"
  test_system: "Human M4 (Homo sapiens, UniProt P08173)"
  units_of_measure: "nM"
  readout_number: 149
- compound: "Cc1c(N2CCc3ncc(Nc4c(F)cccc4F)cc3C2)nn2cnnc2c1C [Compound 47]"
  test_system: "Human M4 (Homo sapiens, UniProt P08173)"
  units_of_measure: "nM"
  readout_number: 92.1
- compound: "COc1ccc(Oc2cnc3c(c2)CN(c2nn4cnnc4c(C)c2C)CC3)cc1 [Compound 12]"
  test_system: "Human M4 (Homo sapiens, UniProt P08173)"
  units_of_measure: "nM"
  readout_number: 191
- compound: "Cc1c(N2CCc3ncc(NC(=O)C4CC4)cc3C2)nn2cnnc2c1C [Compound 14]"
  test_system: "Human M4 (Homo sapiens, UniProt P08173)"
  units_of_measure: "nM"
  readout_number: 1150
- compound: "Cc1nn(C)c(C)c1-c1cnc2c(c1)CN(c1nn3c(C(F)(F)F)nnc3c(C)c1C)CC2 [Compound 93]"
  test_system: "Human M4 (Homo sapiens, UniProt P08173)"
  units_of_measure: "nM"
  readout_number: 173

1. Cc1c(N2CCc3ncc(-c4cc[nH]c4)cc3C2)nn2cnnc2c1C [Compound 101]
2. Cc1ccc(Nc2cnc3c(c2)CN(c2nn4cnnc4c(C)c2C)CC3)c(F)c1 [Compound 48]
Task item: Which record shows the lower EC50: the first, 1 , or the second, 2 ? // caller expects the label of the chosen entry
Reply: 2

1. [2H]c1nnc2c(C)c(C)c(N3CCc4ncc(Nc5ccccc5F)cc4C3)nn12 [Compound 71]
2. Cc1c(N2CCc3ncc(C(=O)NCc4cncs4)cc3C2)nn2cnnc2c1C [Compound 118]
3. COc1ccccc1Nc1cnc2c(c1)CN(c1nn3cnnc3c(C)c1C)CC2 [Compound 54]
4. Cc1c(N2CCc3ncc(Nc4ccccc4N(C)C)cc3C2)nn2cnnc2c1C [Compound 51]
5. Cc1c(N2CCc3ncc(C(=O)NCCN4CCCC4)cc3C2)nn2cnnc2c1C [Compound 125]
Task item: // ranking: key=EC50, reverse=True Your answer should be the labels, listed in the requested order.
Reply: 5, 2, 4, 3, 1
(5: 7200 nM, 2: 707 nM, 4: 402 nM, 3: 152 nM, 1: 65.6 nM)

1. Cc1c(N2CCc3ncc(-c4ccn(C)n4)cc3C2)nn2cnnc2c1C [Compound 2]
2. [2H]c1nnc2c(C)c(C)c(N3CCc4ncc(-c5cn(C)nc5C)cc4C3)nn12 [Compound 76]
Task item: Name the one with the greater EC50 value, either 1 or 2 as given. // caller expects the label of the chosen entry
Reply: 1

I. Cc1c(N2CCc3ncc(N4CCCCC4)cc3C2)nn2cnnc2c1C [Compound 16]
II. Cc1nn(C)cc1-c1cnc2c(c1)CN(c1nn3c(C)nnc3c(C)c1C)CC2 [Compound 88]
Task item: Which record shows the lower EC50: the first, I , or the second, II ? // caller expects the label of the chosen entry
Reply: II
(II: 195 nM, I: 789 nM)
